Data credit: paper PMC4336329

Exercise: state measured hERG current change (%, negative = inhibition) at 10uM for each of the molecules provided.
tested system: human ether-à-go-go-related gene (hERG) potassium channel (human, UniProt Q12809)
Sequence (Q12809 whole entry, looked up): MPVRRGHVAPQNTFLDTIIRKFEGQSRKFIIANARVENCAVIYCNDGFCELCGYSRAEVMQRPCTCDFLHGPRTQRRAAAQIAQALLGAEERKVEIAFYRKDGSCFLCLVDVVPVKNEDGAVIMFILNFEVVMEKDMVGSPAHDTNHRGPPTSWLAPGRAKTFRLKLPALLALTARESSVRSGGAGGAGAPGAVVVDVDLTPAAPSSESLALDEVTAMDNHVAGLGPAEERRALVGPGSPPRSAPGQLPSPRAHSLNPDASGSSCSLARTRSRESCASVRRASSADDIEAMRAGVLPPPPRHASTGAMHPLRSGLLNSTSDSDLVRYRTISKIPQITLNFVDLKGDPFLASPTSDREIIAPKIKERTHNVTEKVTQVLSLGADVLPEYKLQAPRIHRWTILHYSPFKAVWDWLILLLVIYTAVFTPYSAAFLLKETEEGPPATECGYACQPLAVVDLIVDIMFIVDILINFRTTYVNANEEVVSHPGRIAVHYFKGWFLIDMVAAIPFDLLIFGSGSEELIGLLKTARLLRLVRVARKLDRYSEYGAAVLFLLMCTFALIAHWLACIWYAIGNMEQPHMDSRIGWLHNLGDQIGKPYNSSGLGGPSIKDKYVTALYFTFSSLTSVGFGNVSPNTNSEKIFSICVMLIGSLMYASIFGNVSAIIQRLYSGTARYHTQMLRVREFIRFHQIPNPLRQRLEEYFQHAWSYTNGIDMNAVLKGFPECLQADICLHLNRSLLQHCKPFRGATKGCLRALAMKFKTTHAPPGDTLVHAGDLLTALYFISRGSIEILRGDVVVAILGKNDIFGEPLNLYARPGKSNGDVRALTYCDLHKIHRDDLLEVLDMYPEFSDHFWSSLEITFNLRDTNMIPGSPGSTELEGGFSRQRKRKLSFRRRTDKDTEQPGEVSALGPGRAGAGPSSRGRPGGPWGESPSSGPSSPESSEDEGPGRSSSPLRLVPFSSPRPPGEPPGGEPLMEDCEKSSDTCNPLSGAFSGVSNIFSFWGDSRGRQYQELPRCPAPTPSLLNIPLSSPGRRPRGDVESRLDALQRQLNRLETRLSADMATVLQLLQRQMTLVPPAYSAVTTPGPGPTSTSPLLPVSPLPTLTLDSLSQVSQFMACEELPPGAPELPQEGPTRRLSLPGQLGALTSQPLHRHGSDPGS
experimental protocol: primary screen, population patch clamp on CHO cells stably expressing hERG; higher = less effect of the substance
Protocol: Briefly, Chinese hamster ovary (CHO) cells stably expressing the hERG channel were dislodged from tissue culture flasks and dispensed into PPC plates. […] During the recording, background leak currents were estimated by a 100 ms step to -80 mV from an initial holding potential of -70 mV and subtracted from the subsequent current measurement. The campaign was conducted in two phases using slight differences in recording protocol. […]
The campaign covered roughly 310,000 compounds. About 14,000 (4.5%) showed an effect of 50% or more. Effects have a minus sign here. This excerpt belongs to a sample that is enriched for strong results.
Give bare numbers, in %.

Cc1ccc(-n2cc3ccc([N+](=O)[O-])cc3n2)cc1 : 5.28
N#Cc1nc(-c2ccc(OCc3ccccc3)cc2)oc1N1CCOCC1 : 10.4
O=C(CSc1ccc2nnc(-c3cccnc3)n2n1)NCc1ccco1 : -44.3
Cc1nn(-c2ccccc2)c(C)c1/C=N/NC(=O)CSc1nnc(-c2ccccc2)n1-c1ccc(Cl)cc1 : 5.46
O=C(CSc1ccc2nnc(-c3ccccn3)n2n1)Nc1ccc2c(c1)OCCO2 : -40.6

For each entry beneath this line, provide reported hERG current change (%, negative = inhibition) at 10uM.
1. COc1cccc(NC(=O)Nc2cc(C(=O)O)ccc2N2CC3CC(C2)c2cccc(=O)n2C3)c1 (stereo not shown)
2. COc1ccccc1Oc1cc(F)nc(N)n1
3. Cc1nn(Cc2ccc(C(=O)N3N=C(C(F)F)CC3(O)C(F)F)o2)c(C)c1[N+](=O)[O-] (stereo not shown)
4. O=C(CSc1ccc2nnc(-c3cccnc3)n2n1)NCC1CCCO1 (stereo not shown)
5. CCN(CC)S(=O)(=O)c1cccc(-c2nnc(SCC(=O)NC)n2CCc2ccccc2)c1
6. O=C(CSc1ccc2nnc(-c3cccnc3)n2n1)NCc1ccc2c(c1)OCO2
7. COc1ccc(C(CNC(=O)c2ccccc2C)N2CCCC2)cc1 (stereo not shown)

Reply |
8.25
5.82
-37.3
-9.66
-27.3
-53.3
-16.2

Could I get hERG current change (%, negative = inhibition) at 10uM for every one of these entries?
1. Cc1nn(Cc2ccc(C(=O)N3N=C(C(F)F)CC3(O)C(F)F)cc2)c(C)c1[N+](=O)[O-] (stereo not shown)
2. O=C(CSc1ccc2nnc(-c3ccccc3)n2n1)NCc1ccc2c(c1)OCO2
3. Cc1cc(=O)cc(C)n1-c1ccc(F)cc1F
4. O=C(CSc1ccc2nnc(-c3ccccn3)n2n1)NCc1ccc2c(c1)OCO2
5. O=C(COc1ccccc1)Nc1ccc([N+](=O)[O-])cc1
6. Cc1nn(Cc2cccc(C(=O)N3N=C(C(F)F)CC3(O)C(F)F)c2)c(C)c1[N+](=O)[O-] (stereo not shown)
7. Cc1ccc(-c2nnc(SCC#CCOC(=O)c3ccco3)o2)cc1

Reply |
1. -62.9
2. -80.3
3. 0.384
4. -74.4
5. 1.57
6. -19.6
7. -6.36

* * *

tested system: human ether-à-go-go-related gene (hERG) potassium channel (human);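 note: peak tail current of the secondary pulse compared with the same well before compound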
experimental protocol: primary screen, population patch clamp on CHO cells stably expressing hERG; higher = less effect of the substance
In all, about 310,000 compounds went through this assay and about 14,000 (4.5%) showed an effect of 50% or more. Effects have a minus sign here. This is one part of a sample in which strong results are shown more often than they occur.
Kindly state hERG current change (%, negative = inhibition) at 10uM for each of the entries shown.
Answers are plain numbers, in %.

C/C=C(/C)C(=O)OC1c2c(ccc3ccc(=O)oc23)OC(C)(C)C1OC(=O)/C(C)=C\C (stereo not drawn) : -12.3
C/C=C(/C)C(=O)O[C@@H]1c2c(ccc3ccc(=O)oc23)OC(C)(C)[C@@H]1OC(=O)/C(C)=C\C : -8.07
CC(=O)OC1c2c(ccc3ccc(=O)oc23)OC(C)(C)C1OC(=O)CC(C)C (stereo not drawn) : -30.4
C/C=C(/C)C(=O)O[C@@H]1[C@H](OC(C)=O)c2c(ccc3ccc(=O)oc23)OC1(C)C : -36
C/C=C(/C)C(=O)O[C@H]1[C@@H](O)c2c(ccc3ccc(=O)oc23)OC1(C)C : 3.92

For each entry beneath this line, provide reported hERG current change (%, negative = inhibition) at 10uM.
1. C/C=C(\C)C(=O)OC1c2c(ccc3ccc(=O)oc23)OC(C)(C)C1OC(C)=O (stereo not drawn)
2. CC(C)c1ccc(-c2csc(NC(=O)c3cccs3)c2C(=O)O)cc1
3. CCOc1ccc(Nc2ncnc3c2cnn3C)cc1

Reply |
1: -72.5; 2: 18.3; 3: -16.6

Ask | Request the reported hERG current change (%, negative = inhibition) at 10uM associated with C/C=C(/C)C(=O)O[C@@H]1[C@H](OC(=O)C=C(C)C)c2c(ccc3ccc(=O)oc23)OC1(C)C
Reply | -0.258

* * *

tested system: human ether-à-go-go-related gene (hERG) potassium channel (human);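 note: peak tail current of the secondary pulse compared with the same well before compound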
experimental protocol: primary screen, population patch clamp on CHO cells stably expressing hERG; higher = less effect of the substance
Hit rate of the full screen: of about 310,000 compounds, about 14,000 (4.5%) showed an effect of 50% or more. The effect is printed as a negative number. The list comes from a sample in which strong results are over-represented; it also holds close analogues and randomly drawn compounds.
# cutoff -10% applies to hERG current change (%, negative = inhibition) at 10uM; >= gives 1, < gives -1

A selection of reference data follows.
CC(C(=O)NC1CCCCC1)N1CCN(S(=O)(=O)c2cccs2)CC1 (stereo not shown) : 1
C/C=C/c1ccc(OCCCCN2CCN(CC)CC2)c(OC)c1.O=C(O)C(=O)O : -1
COc1cc(C)ccc1OCCCCN1CC(C)OC(C)C1.O=C(O)C(=O)O (stereo not shown) : 1
C/C=C/c1ccc(OCCCNC(C)CC)c(OC)c1.O=C(O)C(=O)O (stereo not shown) : -1
C/C=C/c1ccc(OCCCNC)c(OC)c1.O=C(O)C(=O)O : -1

Ask | Is the recorded value of hERG current change (%, negative = inhibition) at 10uM equal to or greater than -10% for this compound? C/C=C/c1ccc(OCCCCOc2ccccc2C(C)=O)c(OC)c1
Reply | -1

Ask | Same lookup for CC(C)c1ccc(S(=O)(=O)N2CCN(C(C)C(=O)N3CCCC3)CC2)cc1 (stereo not shown) , please.
Reply | -1

Ask | // repeat for C/C=C/c1ccc(OCCCCN(C)Cc2ccccc2)c(OC)c1.O=C(O)C(=O)O and report
Reply | -1

Ask | For C/C=C/c1ccc(OCCNCc2ccccc2)c(OC)c1.O=C(O)C(=O)O then?
Reply | -1

Ask | Input C/C=C/c1ccc(OCCCCN2CC(C)CC(C)C2)c(OC)c1.O=C(O)C(=O)O (stereo not shown)
Reply | -1

* * *

Kindly state hERG current change (%, negative = inhibition) at 10uM for each of the entries shown.
tested system: human ether-à-go-go-related gene (hERG) potassium channel (human, UniProt Q12809);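 note: peak tail current of the secondary pulse compared with the same well before compound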
experimental protocol: primary screen, population patch clamp on CHO cells stably expressing hERG; higher = less effect of the substance
Screen size: about 310,000 compounds; about 14,000 (4.5%) showed an effect of 50% or more. The effect is printed as a negative number. The sample as a whole holds a higher share of strong results than the screen did.
Numbers only, in %.

Cn1c2ccccc2c2cnn(CC(=O)N3CCC4(CC3)OCCO4)c(=O)c21 : -22.2
Cc1c2cnn(CC(=O)N3CCC4(CC3)OCCO4)c(=O)c2c(C)n1Cc1ccccc1F : 6.7
O=C(Cn1ncc2c3ccccc3n(Cc3ccc(F)cc3)c2c1=O)N1CCN(c2ncccn2)CC1 : -16.2

Quick batch: hERG current change (%, negative = inhibition) at 10uM for everything below.
1. Cc1c2cnn(CC(=O)N3CCC4(CC3)OCCO4)c(=O)c2c(C)n1Cc1cccc(Cl)c1
2. O=C(Cn1ncc2c3ccccc3n(Cc3ccc(F)cc3)c2c1=O)N1CCC2(CC1)OCCO2
3. O=c1[nH]c(=S)[nH]c2scc(-c3ccc(Br)cc3)c12
4. O=C(Cn1ncc2c3ccccc3n(Cc3cccc(Cl)c3)c2c1=O)N1CCC2(CC1)OCCO2
5. O=C(Cn1ncc2c3ccccc3n(Cc3ccccc3F)c2c1=O)N1CCC2(CC1)OCCO2
6. CCOC(=O)c1cc(CC)sc1NC(=O)Cc1ccccc1

Reply |
[1.18, -67.2, 16.3, -69, -72.8, 25.9]

* * *

tested system: human ether-à-go-go-related gene (hERG) potassium channel (human);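 note: peak tail current of the secondary pulse compared with the same well before compound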
experimental protocol: primary screen, population patch clamp on CHO cells stably expressing hERG; higher = less effect of the substance
Among all 310,000 compounds or so, about 14,000 (4.5%) showed an effect of 50% or more. Effects have a minus sign here. Only a selection was taken, and strong results are over-represented in it overall.
observed property: hERG current change (%, negative = inhibition) at 10uM (%)
Answers are plain numbers, in %.

Cc1ccc(S(=O)(=O)N(C)c2nc3ccccc3n3c(C(C)C)nnc23)cc1 : -28.1
O=C(/C=C/c1cccs1)Nc1nccs1 : 15.8
CC1(C2CC2)NC(=O)N(CC(=O)Nc2ccc(Cl)c([N+](=O)[O-])c2)C1=O (centres unmarked) : -1.15

Respectfully, I request hERG current change (%, negative = inhibition) at 10uM for each entry included below.
1. Cc1ccc(N(CC(=O)NC2CCCC2)C(=O)CCCC(=O)Nc2ccccn2)cc1C
2. O=C(Nc1ccc(S(=O)(=O)Nc2ncccn2)cc1)c1ccccc1NS(=O)(=O)c1ccc(F)cc1

Reply |
2.86
9.91
